Origin of measurements: patent US20210386689A1

Test: clinical
Conditions: both sexes, human, in vivo
readout_label: Vd/F (L)

>>> experimental_value("O=C1Nc2ccc(Cl)cc2[C@@](C#CC2CC2)(C(F)(F)F)O1")
525

###

Assay: clinical
Conditions: both sexes, human, in vivo, Median tmax
readout_label: Tmax (h)

>>> experimental_value("O=C1Nc2ccc(Cl)cc2[C@@](C#CC2CC2)(C(F)(F)F)O1")
4

###

Test: clinical
Conditions: both sexes, human, in vivo, 400 mg
readout_label: Vd/F

>>> experimental_value("O=C1Nc2ccc(Cl)cc2[C@@](C#CC2CC2)(C(F)(F)F)O1 [Efavirenz]")
"759 L"

###

Assay: clinical
Conditions: both sexes, human, in vivo, t1/2
readout_label: half-life (h)

>>> experimental_value("O=C1Nc2ccc(Cl)cc2[C@@](C#CC2CC2)(C(F)(F)F)O1")
161
